- assay_overview: Biodistribution of 125I-labeled Z isomer (16') in ovarectomized BDF1 mice
- Type: in vivo
- condition_notes: mouse, 1 uCi; fat, 2 hours, 1 μCi 125I, ± S.D.; read-out: % injected dose/g of tissue, fat
result_type: tissue uptake at 2 h (%ID/g)
State just the number; it will be interpreted in %ID/g.

Note to self: tissue uptake at 2 h recorded for `C[C@]12C[C@H](CCl)[C@@H]3c4ccc(O)cc4CC[C@H]3[C@@H]1CC[C@@]2(O)/C=C\I` was 2.29

###

- assay_overview: Biodistribution of 125I-labeled Z isomer (16') in ovarectomized BDF1 mice
- Type: in vivo
- condition_notes: mouse, 1 uCi; muscle, 24 hours, 1 μCi 125I, ± S.D.; read-out: % injected dose/g of tissue, muscle
result_type: tissue uptake at 24 h (%ID/g)
Lab book: enter the figure in %ID/g, no units written.

// tissue uptake at 24 h lookup, molecule = `C[C@]12C[C@H](CCl)[C@@H]3c4ccc(O)cc4CC[C@H]3[C@@H]1CC[C@@]2(O)/C=C\I` , result: 0.1

###

- assay_overview: Biodistribution of 125I-labeled Z isomer (16') in ovarectomized BDF1 mice
- Format: in vivo
- condition_notes: mouse, 1 uCi; kidneys, 2 hours, 1 μCi 125I, ± S.D.; read-out: % injected dose/g of tissue, kidneys
result_type: tissue uptake at 2 h (%ID/g)
Response body: numeric value in %ID/g, unit text excluded.

The molecule listed as `C[C@]12C[C@H](CCl)[C@@H]3c4ccc(O)cc4CC[C@H]3[C@@H]1CC[C@@]2(O)/C=C\I` shows tissue uptake at 2 h equal to 1.84

###

- assay_overview: Biodistribution of 125I-labeled Z isomer (16') in ovarectomized BDF1 mice
- Format: in vivo
- condition_notes: mouse, 1 uCi; liver, 24 hours, 1 μCi 125I, ± S.D.; read-out: % injected dose/g of tissue, liver
result_type: tissue uptake at 24 h (%ID/g)
Return type: number; implicit unit %ID/g.

Sure, the documented tissue uptake at 24 h for C[C@]12C[C@H](CCl)[C@@H]3c4ccc(O)cc4CC[C@H]3[C@@H]1CC[C@@]2(O)/C=C\I [16'] is 0.91

###

- assay_overview: Biodistribution of 125I-labeled Z isomer (16') in ovarectomized BDF1 mice
- Type: in vivo
- condition_notes: mouse, 1 uCi; spleen, 2 hours, 1 μCi 125I, ± S.D.; read-out: % injected dose/g of tissue, spleen
result_type: tissue uptake at 2 h (%ID/g)
Response body: numeric value in %ID/g, unit text excluded.

# tissue uptake at 2 h of C[C@]12C[C@H](CCl)[C@@H]3c4ccc(O)cc4CC[C@H]3[C@@H]1CC[C@@]2(O)/C=C\I [16'] = 0.97

###

- assay_overview: Biodistribution of 125I-labeled Z isomer (16') in ovarectomized BDF1 mice
- Assay type: in vivo
- condition_notes: mouse, 1 uCi; uterus, 24 hours, 1 μCi 125I, ± S.D.; read-out: % injected dose/g of tissue, uterus
- Protocol: The biodistribution of the Z isomer (16') in ovarectomized BDF mice is highly favorable. 8 ovarectomized BDF1 mice were injected with 1 μCi of 11beta-chloromethyl-17alpha-(2-iodovinyl)estradiol-(^125 I). 4 mice were sacrificed 2 hours after the estradiolinjection and 4 24 hours after the injection.
result_type: tissue uptake at 24 h (%ID/g)
The reply should be a number in %ID/g, with the unit left off.

Reported tissue uptake at 24 h for `C[C@]12C[C@H](CCl)[C@@H]3c4ccc(O)cc4CC[C@H]3[C@@H]1CC[C@@]2(O)/C=C\I` was 9.21

###

- assay_overview: Biodistribution of 125I-labeled Z isomer (16') in ovarectomized BDF1 mice
- Assay type: in vivo
- condition_notes: mouse, 1 uCi; muscle, 2 hours, 1 μCi 125I, ± S.D.; read-out: % injected dose/g of tissue, muscle
result_type: tissue uptake at 2 h (%ID/g)
Reply numerically in %ID/g, unit not repeated.

Memo: `C[C@]12C[C@H](CCl)[C@@H]3c4ccc(O)cc4CC[C@H]3[C@@H]1CC[C@@]2(O)/C=C\I` , reported tissue uptake at 2 h: 0.89

###

- assay_overview: Biodistribution of 125I-labeled Z isomer (16') in ovarectomized BDF1 mice
- Type: in vivo
- condition_notes: mouse, 1 uCi; liver, 2 hours, 1 μCi 125I, ± S.D.; read-out: % injected dose/g of tissue, liver
result_type: tissue uptake at 2 h (%ID/g)
Answer with a number only, understood to be in %ID/g.

Field tissue uptake at 2 h (entry `C[C@]12C[C@H](CCl)[C@@H]3c4ccc(O)cc4CC[C@H]3[C@@H]1CC[C@@]2(O)/C=C\I` ) reads 5.1

###

- assay_overview: Biodistribution of 125I-labeled Z isomer (16') in ovarectomized BDF1 mice
- Format: in vivo
- condition_notes: mouse, 1 uCi; kidneys, 24 hours, 1 μCi 125I, ± S.D.; read-out: % injected dose/g of tissue, kidneys
result_type: tissue uptake at 24 h (%ID/g)
Give the quantity in %ID/g, number only.

Field tissue uptake at 24 h (entry `C[C@]12C[C@H](CCl)[C@@H]3c4ccc(O)cc4CC[C@H]3[C@@H]1CC[C@@]2(O)/C=C\I` ) reads 0.2
